Test system: A549 cells
PROTOCOL DESCRIPTION: MTT cytotoxicity assay in A549 cells
Format: cell-based
CONDITION SUMMARY: Homo sapiens; Table S3, A549; read-out: Cytox. pIC50 (converted)
Method: A 3-[4,5-dimehyl-2-thiazolyl]-2,5-diphenyl-2H-tetrazoliumbromide (MTT) assay was utilized to assess the concentration-response curves for quinazoline analogues as previously reported. A549 cells (ATCC CCL-185, human alveolar basal epithelial cell line) were used to account for the general cytotoxicity of compounds. […] Absorbance values were recorded at 570 nm after 5 min mechanical shaking of the microplate (Sunrise microplate reader, Tecan). […]
Each record is given satisfied if its reported IC50 is strictly below 30 µM. Records at or above 30 µM are given not satisfied.

Sample answers from the record:
MOLECULAR STRING: NS(=O)(=O)c1cccc(Nc2nc(NCc3cccs3)c3ccccc3n2)c1
CAT: satisfied
--
MOLECULAR STRING: c1ccc(CNc2nc(Nc3ccc(N4CCOCC4)cc3)nc3ccccc23)cc1
CAT: satisfied
--
MOLECULAR STRING: c1ccc(Nc2nc(NCc3cccs3)c3ccccc3n2)cc1
CAT: satisfied
--
MOLECULAR STRING: NS(=O)(=O)c1ccc(Nc2nc(NCc3cccs3)c3ccccc3n2)cc1
CAT: not satisfied

Could you now look at the following compound, please?
In the record for c1csc(CNc2nc(Nc3ccc(N4CCOCC4)cc3)nc3ccccc23)c1 , is IC50 less than 30 µM?
satisfied
